- ASSAY NAME: solvent given as SMILES
- ASSAY CONTEXT: in CCCCCC

- COMPOUND: "O=C(O)c1ccc2ccc3cccc4ccc1c2c34"
  emission maximum: "387 nm"
- COMPOUND: "CC1(C)Oc2c(c3nc4ccccc4nc3c3ccccc23)CC1Br (stereo not given)"
  emission maximum: "430.66 nm"
- COMPOUND: "CN(C)CCNc1ccc([N+](=O)[O-])cc1[N+](=O)[O-]"
  emission maximum: "363 nm"
- COMPOUND: "CC1=[N+]2C(=C(c3ccc(N(C)C)cc3)c3ccc(C)n3[B-]2(F)F)C=C1"
  emission maximum: "519 nm"
- COMPOUND: "COc1ccc(N(c2ccc(OC)cc2)c2ccc(-c3ccc4c(c3)C(=O)c3ccccc3C4=O)cc2)cc1"
  emission maximum: "571 nm"
- COMPOUND: "C(=C\\c1cnccn1)/c1ccc2nccnc2c1"
  emission maximum: "403 nm"
- COMPOUND: "CN(C)c1cccc2c1C(=O)c1ccccc1C2=O"
  emission maximum: "566.2 nm"
- COMPOUND: "CCNc1ccc2c(C(F)(F)F)cc(=O)oc2c1"
  emission maximum: "417 nm"
- COMPOUND: "CC(C)[Si](C#Cc1c2cc3ccccc3cc2c(C#C[Si](C(C)C)(C(C)C)C(C)C)c2nc3cc4c(cc3nc12)C1c2ccccc2C4c2ccccc21)(C(C)C)C(C)C"
  emission maximum: "682 nm"
- COMPOUND: "CC(C)[Si](C#Cc1c2nc3ccccc3nc2c(C#C[Si](C(C)C)(C(C)C)C(C)C)c2nc3c(ccc4ccccc43)nc12)(C(C)C)C(C)C"
  emission maximum: "656 nm"

* * *

Listed next: entries and their corresponding emission maximum.
- ASSAY NAME: solvent given as SMILES
- ASSAY CONTEXT: in Cc1ccccc1

- COMPOUND: "O=c1c2cc(-n3c4ccccc4c4ccccc43)ccc2sc2ccc(-n3c4ccccc4c4ccccc43)cc12"
  emission maximum: "455.5 nm"
- COMPOUND: "COc1ccc(-c2c3ccc([nH]3)c3nc(c(-c4ccc([N+](=O)[O-])cc4)c4ccc([nH]4)c4ccc([nH]4)c(-c4ccc(OC)cc4)c4ccc2o4)C=C3)cc1"
  emission maximum: "739 nm"
- COMPOUND: "COc1cc(N(c2ccccc2)c2ccccc2)ccc1C=C(C#N)C#N"
  emission maximum: "525 nm"
- COMPOUND: "CCCCC1=Cc2c3ccc4cccc5ccc(c6cc(-c7ccccc7)n(c26)P1(=O)c1ccccc1)c3c45 (stereo not drawn)"
  emission maximum: "460 nm"
- COMPOUND: "CC1(C)c2ccccc2N(c2ccc(-c3nnc(-c4cc(-c5ccccc5)c(-c5ccccc5)c(-c5ccccc5)c4-c4ccccc4)o3)cc2)c2ccccc21"
  emission maximum: "445 nm"
- COMPOUND: "F[B-]1(F)OC(c2ccccc2)=Nc2sc(-c3ccccc3)n[n+]21"
  emission maximum: "410 nm"
- COMPOUND: "c1ccc(N2c3ccc4ccccc4c3-c3c4ccccc4cc[n+]3[B-]2(c2ccccc2)c2ccccc2)cc1"
  emission maximum: "623 nm"
- COMPOUND: "CC1=[N+]2C(=C(c3ccc(N4CCOCC4)cc3)c3ccc(C)n3[B-]2(F)F)C=C1"
  emission maximum: "524 nm"

* * *

- ASSAY NAME: solvent given as SMILES
- ASSAY CONTEXT: in CO
Use Criterion met when the recorded emission maximum is no lower than 500 nm; use Criterion not met when it is lower.

- COMPOUND: "CCN1C(=CC2=C([O-])C(=Cc3[se]c4ccccc4[n+]3CC)C2=O)[Se]c2ccccc21"
  CATEGORY: "Criterion met"
- COMPOUND: "CCC1=C(C)C2=Cc3cc(I)c(I)n3[B-](F)(F)[N+]2=C1C"
  CATEGORY: "Criterion met"
- COMPOUND: "COC(=O)[C@H](Cc1ccc2oc3c(c2c1)=CC1=C(c2ccc(OC)cc2)c2cc4c5cc(C[C@H](NC(=O)OC(C)(C)C)C(=O)OC)ccc5oc4n2[B-](F)(F)[N+]=31)NC(=O)OC(C)(C)C"
  CATEGORY: "Criterion met"
- COMPOUND: "C=CCOc1ccc(-c2nc3cc(C(NC(=O)OC(C)(C)C)C(=O)OC)ccc3o2)cc1 (configuration not stated)"
  CATEGORY: "Criterion not met"
- COMPOUND: "CS1(C)C(/C=C/C2=C(c3ccc(C(=O)O)cc3)C(=C/C=C3/N(CCCCS(=O)(=O)[O-])c4ccccc4S3(C)C)/CCC2)=[N+](CCCCS(=O)(=O)[O-])c2ccccc21"
  CATEGORY: "Criterion met"
- COMPOUND: "Cc1ccccc1C1=C2C=c3c(oc4ccc(C(C)(C)C)cc34)=[N+]2[B-](F)(F)n2c1cc1c3cc(C(C)(C)C)ccc3oc12"
  CATEGORY: "Criterion met"
- COMPOUND: "N#CSC1=CC2=C(c3ccccc3)c3cc(SC#N)c(N4CCOCC4)n3[B-](F)(F)[N+]2=C1N1CCOCC1"
  CATEGORY: "Criterion met"
- COMPOUND: "Cc1nc(-c2ccccc2)c2ccccn12"
  CATEGORY: "Criterion not met"
- COMPOUND: "Cc1ccccc1/C(C#N)=C/c1ccc(N(C)C)cc1"
  CATEGORY: "Criterion not met"
- COMPOUND: "O=C(O)CCCOc1cc2ccc3cccc4ccc(c1)c2c34"
  CATEGORY: "Criterion not met"
- COMPOUND: "COc1ccc(C#Cc2nc3ccccc3nc2-c2cn(C)c3ccccc23)cc1"
  CATEGORY: "Criterion met"
- COMPOUND: "CC[N+]1=C(/C=C/C=C/C=C/C=C2/N(CCCCCC(=O)O)c3ccccc3C2(C)C)C(C)(C)c2cc(S(=O)(=O)[O-])ccc21"
  CATEGORY: "Criterion met"
- COMPOUND: "CCOC(=O)/C(C#N)=C\\c1cn(-c2ccccc2)nc1-c1ccccc1"
  CATEGORY: "Criterion not met"
- COMPOUND: "O=[N+]([O-])c1ccc(S(=O)(=O)Nc2ccc(C#Cc3ccc4ccc5ccc(C#Cc6ccc(NS(=O)(=O)c7ccc([N+](=O)[O-])cc7[N+](=O)[O-])cc6)c6ccc3c4c56)cc2)c([N+](=O)[O-])c1"
  CATEGORY: "Criterion met"
- COMPOUND: "COc1cc(/C=C/c2cc[n+](Cc3ccc(Br)cc3)cc2)ccc1O"
  CATEGORY: "Criterion met"

* * *

- ASSAY NAME: solvent given as SMILES
- ASSAY CONTEXT: in c1cc(-n2c3ccccc3c3ccccc32)cc(-n2c3ccccc3c3ccccc32)c1
RECORDED METRIC: emission maximum (nm)

- SMILES REPRESENTATION: "CC1(C)c2ccccc2N(c2cccc(S(=O)(=O)c3cccc(N4c5ccccc5C(C)(C)c5ccccc54)c3)c2)c2ccccc21"
  SCALE UNIT: "nm"
  NUMERIC VALUE: 505.12
- SMILES REPRESENTATION: "c1ccc(N(c2ccccc2)c2ccc(-c3ccc4c(c3)C3(c5ccccc5Oc5ccccc53)c3cc(-c5ccc(N(c6ccccc6)c6ccccc6)cc5)ccc3-4)cc2)cc1"
  SCALE UNIT: "nm"
  NUMERIC VALUE: 441
- SMILES REPRESENTATION: "CC(C)(C)c1ccc2c(c1)c1cc(C(C)(C)C)ccc1n2-c1ccccc1-c1nccnc1C#N"
  SCALE UNIT: "nm"
  NUMERIC VALUE: 483
- SMILES REPRESENTATION: "N#Cc1cc(-n2c3ccccc3c3cccnc32)c(-n2c3ccccc3c3cccnc32)cc1C#N"
  SCALE UNIT: "nm"
  NUMERIC VALUE: 441.06
- SMILES REPRESENTATION: "O=S(=O)(c1cccc(N2c3ccccc3Oc3ccccc32)c1)c1cccc(N2c3ccccc3Oc3ccccc32)c1"
  SCALE UNIT: "nm"
  NUMERIC VALUE: 546.26
- SMILES REPRESENTATION: "c1ccc(N(c2ccccc2)c2ccc(-c3ccc4c(c3)C3(c5cc(-c6ccc(N(c7ccccc7)c7ccccc7)cc6)ccc5O4)c4ccccc4-c4ccccc43)cc2)cc1"
  SCALE UNIT: "nm"
  NUMERIC VALUE: 407

* * *

- ASSAY NAME: solvent given as SMILES
- ASSAY CONTEXT: in C1COCCO1
Please assign NOT MET whenever emission maximum is at or above 500 nm, and MET whenever it is below.

- SMILES REPRESENTATION: "C(=C\\c1ccc(N(c2ccccc2)c2ccccc2)cc1)/c1ccc(-c2cc(-c3ccccn3)nc(-c3ccccn3)c2)cc1"
  CATEGORY: "MET"
- SMILES REPRESENTATION: "Cc1ccc(C2=C3C=CC(c4ccccc4)=[N+]3[B-](F)(F)n3c2ccc3-c2ccccc2)cc1"
  CATEGORY: "NOT MET"
- SMILES REPRESENTATION: "COc1ccc(/C=C/C2=CC(/C=C/c3ccc(OC)cc3)=[N+]3C2=C(c2ccc(-c4ccc5ccccc5n4)s2)c2c(/C=C/c4ccc(OC)cc4)cc(/C=C/c4ccc(OC)cc4)n2[B-]3(F)F)cc1"
  CATEGORY: "NOT MET"
- SMILES REPRESENTATION: "N#Cc1c(N2CCCCC2)cc(-c2ccc(O)cc2)c2c1-c1cccc3cccc-2c13"
  CATEGORY: "NOT MET"
- SMILES REPRESENTATION: "COc1cc(N(c2ccccc2)c2ccccc2)ccc1C=C(C#N)C#N"
  CATEGORY: "NOT MET"
- SMILES REPRESENTATION: "CCCCN1c2ccccc2Sc2cc(/C=C/C3=Nc4ccc5ccccc5c4C3(C)C)ccc21"
  CATEGORY: "NOT MET"
- SMILES REPRESENTATION: "CCOC(=O)CSc1nc(-c2ccccc2)c(C)c(C#N)c1C#N"
  CATEGORY: "MET"
- SMILES REPRESENTATION: "Cc1cc2c(o1)c(C)cc1ccc(=O)oc12"
  CATEGORY: "MET"
- SMILES REPRESENTATION: "Cc1cc2c(o1)c(Br)cc1c(C)cc(=O)oc12"
  CATEGORY: "MET"
